Please respond with reported IC50 for every item in the list.
Tested on: 616215-338-R-J1-PDC complex spheroid growth, % test/control
Assay: Anticancer human tumor 616215-338-R-J1-PDC patient-derived colon adenocarcinoma cell line growth inhibition [Asc]
Conditions: curve of first compound; second compound 1 µM
The response must be a number in nM with no trailing unit.

[Q] Need IC50 of C=C(F)C(=O)N1CCN(c2nc(OCC3CCCN3C)nc3c2CCN(c2cccc4cccc(Cl)c24)C3)CC1CC#N (configuration not stated) + CNC(C)C(=O)NC1CN(S(=O)(=O)c2cccc(S(=O)(=O)N3CCC4CCC(C(=O)NC(c5ccccc5)c5ccccc5)N4C(=O)C(NC(=O)C(C)NC)C3)c2)CCC2CCC(C(=O)NC(c3ccccc3)c3ccccc3)N2C1=O , thanks.
[A] 131

[Q] // query IC50 value for entry NC(=O)C(=Cn1cnc(-c2cc(C(F)(F)F)cc(C(F)(F)F)c2)n1)c1cncnc1 + CNC(C)C(=O)NC1CN(S(=O)(=O)c2cccc(S(=O)(=O)N3CCC4CCC(C(=O)NC(c5ccccc5)c5ccccc5)N4C(=O)C(NC(=O)C(C)NC)C3)c2)CCC2CCC(C(=O)NC(c3ccccc3)c3ccccc3)N2C1=O
[A] 191

[Q] What IC50 value was documented for this compound, C=CC(=O)N1CCN(c2nc(=O)n(-c3c(C)ccnc3C(C)C)c3nc(-c4c(O)cccc4F)c(F)cc23)C(C)C1 (configuration not stated) + Cc1c(S(C)(=O)=O)c(-c2cc(F)cc(N3CCN(c4ccc(NS(=O)(=O)c5ccc(NC(CCN6CCC(C(=O)OCCCP(=O)(O)O)CC6)CSc6ccccc6)c(S(=O)(=O)C(F)(F)F)c5)cc4)CC3)c2)c(-c2ccc(Cl)cc2)n1C(C)C ?
[A] 2350

[Q] # lookup: IC50 of NC(=O)C(=Cn1cnc(-c2cc(C(F)(F)F)cc(C(F)(F)F)c2)n1)c1cncnc1 + Cc1c(S(C)(=O)=O)c(-c2cc(F)cc(N3CCN(c4ccc(NS(=O)(=O)c5ccc(NC(CCN6CCC(C(=O)OCCCP(=O)(O)O)CC6)CSc6ccccc6)c(S(=O)(=O)C(F)(F)F)c5)cc4)CC3)c2)c(-c2ccc(Cl)cc2)n1C(C)C
[A] 36.6

* * *

System: 616215-338-R-J1-PDC complex spheroid growth, % test/control
Test: Anticancer human tumor 616215-338-R-J1-PDC cell line growth inhibition [Asc]; active = viability on the fitted dose curve at most 10% of control; inactive = the rest;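 further: spheroids exposed to agents for seven days before readout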
Details: second compound 0.1 µM; first compound 10 µM
Pick one and only one: active, inactive

[Q] Per the records of this test, what outcome belongs to C=C(F)C(=O)N1CCN(c2nc(OCC3CCCN3C)nc3c2CCN(c2cccc4cccc(Cl)c24)C3)CC1CC#N (stereo not drawn) + CNC(C)C(=O)NC1CN(S(=O)(=O)c2cccc(S(=O)(=O)N3CCC4CCC(C(=O)NC(c5ccccc5)c5ccccc5)N4C(=O)C(NC(=O)C(C)NC)C3)c2)CCC2CCC(C(=O)NC(c3ccccc3)c3ccccc3)N2C1=O ?
[A] active

[Q] Hi team, can someone confirm the assay call for C=CC(=O)N1CCN(c2nc(=O)n(-c3c(C)ccnc3C(C)C)c3nc(-c4c(O)cccc4F)c(F)cc23)C(C)C1 (stereo not drawn) + Cc1c(S(C)(=O)=O)c(-c2cc(F)cc(N3CCN(c4ccc(NS(=O)(=O)c5ccc(NC(CCN6CCC(C(=O)OCCCP(=O)(O)O)CC6)CSc6ccccc6)c(S(=O)(=O)C(F)(F)F)c5)cc4)CC3)c2)c(-c2ccc(Cl)cc2)n1C(C)C ?
[A] inactive

[Q] Check the results log: what was the call for C#Cc1c(F)ccc2cc(O)cc(-c3ncc4c(N5CC6CCC(C5)N6)nc(OCC56CCCN5CC(F)C6)nc4c3F)c12 (stereo not drawn) + Cc1c(S(C)(=O)=O)c(-c2cc(F)cc(N3CCN(c4ccc(NS(=O)(=O)c5ccc(NC(CCN6CCC(C(=O)OCCCP(=O)(O)O)CC6)CSc6ccccc6)c(S(=O)(=O)C(F)(F)F)c5)cc4)CC3)c2)c(-c2ccc(Cl)cc2)n1C(C)C ?
[A] inactive
